- Tested System: human P2Y6 receptor (Homo sapiens, UniProt Q15077)
- Sequence (Q15077 whole entry): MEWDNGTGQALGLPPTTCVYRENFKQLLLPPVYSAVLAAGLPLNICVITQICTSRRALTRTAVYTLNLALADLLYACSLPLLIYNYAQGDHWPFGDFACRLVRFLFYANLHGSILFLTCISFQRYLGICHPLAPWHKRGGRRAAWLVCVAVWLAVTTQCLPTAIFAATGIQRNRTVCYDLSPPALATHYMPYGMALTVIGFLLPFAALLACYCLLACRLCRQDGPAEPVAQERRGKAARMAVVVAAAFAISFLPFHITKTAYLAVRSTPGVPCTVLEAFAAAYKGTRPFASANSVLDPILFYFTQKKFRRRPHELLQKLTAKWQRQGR
- Assay Name: PLC activation
- Assay type: cell-based
Measure: EC50 (nM)

P: CC(C)(C)O/N=c1/ccn([C@@H]2O[C@H](COP(=O)(O)OP(=O)(O)O)[C@@H](O)[C@H]2O)c(=O)[nH]1
Q: CO/N=c1/ccn([C@@H]2O[C@H](COP(=O)(O)CP(=O)(O)O)[C@@H](O)[C@H]2O)c(=O)[nH]1
R: CCO/N=c1/ccn([C@@H]2O[C@H](COP(=O)(O)OP(=O)(O)O)[C@@H](O)[C@H]2O)c(=O)[nH]1
Request: Parameters: sort_by = EC50; order = desc; input = items above. Returns: the labels listed in the requested order.
Response: P, Q, R
(P: 2550 nM, Q: 678 nM, R: 104 nM)
